- Organism: Homo sapiens
- Test summary: Residual activity of human CDK3/Cyclin E at 1 uM relative to control
Reported endpoint: residual activity (%)

| Entry smiles | Readout units | Result |
| --- | --- | --- |
| O=C1NC(=O)C2=C1c1cn(c3ccccc13)CCCc1cc(nc(N3CCCC3)c1)CCCn1cc2c2ccccc21 | % | 86 |

1 = CN(C)c1nc2ccc1CCCn1cc(c3ccccc31)C1=C(C(=O)NC1=O)c1cn(c3ccccc13)CC2
2 = CN(C)c1cc2cc(n1)CCCn1cc(c3ccccc31)C1=C(C(=O)NC1=O)c1cn(c3ccccc13)CCC2
Query :: So which one has the bigger residual activity here, 1 or 2 ? Answer = label.
Result :: 2

* * *

- Test target: RAC-beta serine/threonine-protein kinase (Homo sapiens) (UniProt P31751)
- Sequence (P31751 whole entry): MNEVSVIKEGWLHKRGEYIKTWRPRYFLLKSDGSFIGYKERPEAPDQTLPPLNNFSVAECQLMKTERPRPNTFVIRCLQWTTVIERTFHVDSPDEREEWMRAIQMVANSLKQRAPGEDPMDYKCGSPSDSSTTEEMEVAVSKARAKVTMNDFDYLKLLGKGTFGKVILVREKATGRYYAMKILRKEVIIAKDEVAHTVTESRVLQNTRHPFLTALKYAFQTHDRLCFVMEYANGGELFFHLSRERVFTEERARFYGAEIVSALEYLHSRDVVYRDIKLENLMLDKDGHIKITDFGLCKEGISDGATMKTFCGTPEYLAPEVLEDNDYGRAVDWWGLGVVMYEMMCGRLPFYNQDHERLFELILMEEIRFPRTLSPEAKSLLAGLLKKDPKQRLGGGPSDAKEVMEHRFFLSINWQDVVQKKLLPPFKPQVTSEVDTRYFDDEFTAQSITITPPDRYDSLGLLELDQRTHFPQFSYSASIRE
- Test summary: Residual activity of human PKBbeta at 1 uM relative to control
Reported endpoint: residual activity (%)

| Entry smiles | Reported endpoint | Readout units | Result |
| --- | --- | --- | --- |
| O=C1NC(=O)C2=C1c1cn(c3ccccc13)CCCc1ccc(c(N3CCCC3)n1)CCCn1cc2c2ccccc21 | residual activity | % | 102 |
| CN(C)c1nc2ccc1CCCn1cc(c3ccccc31)C1=C(C(=O)NC1=O)c1cn(c3ccccc13)CC2 | residual activity | % | 86 |
| CN(C)c1cc2cc(n1)CCCn1cc(c3ccccc31)C1=C(C(=O)NC1=O)c1cn(c3ccccc13)CCC2 | residual activity | % | 118 |
| O=C1NC(=O)C2=C1c1cn(c3ccccc13)CCCc1cc(nc(N3CCCC3)c1)CCCn1cc2c2ccccc21 | residual activity | % | 104 |

* * *

- Test target: Macrophage colony-stimulating factor 1 receptor (Homo sapiens) (UniProt P07333)
- Sequence (P07333 whole entry): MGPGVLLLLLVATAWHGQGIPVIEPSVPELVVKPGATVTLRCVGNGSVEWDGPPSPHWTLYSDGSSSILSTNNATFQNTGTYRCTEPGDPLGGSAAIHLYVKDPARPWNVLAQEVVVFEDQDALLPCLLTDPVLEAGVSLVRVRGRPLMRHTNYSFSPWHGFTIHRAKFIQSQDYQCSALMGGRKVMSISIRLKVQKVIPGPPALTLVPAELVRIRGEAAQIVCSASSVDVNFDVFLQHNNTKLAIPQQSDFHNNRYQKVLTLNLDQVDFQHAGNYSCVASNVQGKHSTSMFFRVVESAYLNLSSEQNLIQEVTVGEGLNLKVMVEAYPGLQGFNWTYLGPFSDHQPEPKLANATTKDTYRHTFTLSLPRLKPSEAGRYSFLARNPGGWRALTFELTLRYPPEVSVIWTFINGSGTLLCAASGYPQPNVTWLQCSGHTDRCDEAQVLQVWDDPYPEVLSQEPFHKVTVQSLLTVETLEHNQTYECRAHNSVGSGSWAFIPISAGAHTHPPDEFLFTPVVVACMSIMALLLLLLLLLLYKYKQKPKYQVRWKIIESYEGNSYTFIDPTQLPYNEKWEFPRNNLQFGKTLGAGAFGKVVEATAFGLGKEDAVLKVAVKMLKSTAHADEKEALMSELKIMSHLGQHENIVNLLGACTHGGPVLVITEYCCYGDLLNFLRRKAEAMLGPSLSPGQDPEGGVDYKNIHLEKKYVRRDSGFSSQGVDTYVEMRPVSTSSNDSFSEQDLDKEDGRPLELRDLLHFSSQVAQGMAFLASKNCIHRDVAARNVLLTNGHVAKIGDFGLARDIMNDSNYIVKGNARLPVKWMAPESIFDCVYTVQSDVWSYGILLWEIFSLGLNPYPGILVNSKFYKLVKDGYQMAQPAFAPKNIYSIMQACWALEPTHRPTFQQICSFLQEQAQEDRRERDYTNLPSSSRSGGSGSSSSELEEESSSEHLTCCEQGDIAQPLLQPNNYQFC
- Test summary: Residual activity of human Fms at 1 uM relative to control
Reported endpoint: residual activity (%)

| Entry smiles | Test target | residual activity [%] |
| --- | --- | --- |
| O=C1NC(=O)C2=C1c1cn(c3ccccc13)CCCc1ccc(c(N3CCCC3)n1)CCCn1cc2c2ccccc21 | Macrophage colony-stimulating factor 1 receptor (Homo sapiens) (UniProt P07333) | 106 |
| O=C1NC(=O)C2=C1c1cn(c3ccccc13)CCCc1cc(nc(N3CCCC3)c1)CCCn1cc2c2ccccc21 | Macrophage colony-stimulating factor 1 receptor (Homo sapiens) (UniProt P07333) | 99 |
| CN(C)c1nc2ccc1CCCn1cc(c3ccccc31)C1=C(C(=O)NC1=O)c1cn(c3ccccc13)CC2 | Macrophage colony-stimulating factor 1 receptor (Homo sapiens) (UniProt P07333) | 94 |
| CN(C)c1cc2cc(n1)CCCn1cc(c3ccccc31)C1=C(C(=O)NC1=O)c1cn(c3ccccc13)CCC2 | Macrophage colony-stimulating factor 1 receptor (Homo sapiens) (UniProt P07333) | 101 |

* * *

- Test target: UniProtKB P07948
- Sequence (P07948 2-512 limits assumed): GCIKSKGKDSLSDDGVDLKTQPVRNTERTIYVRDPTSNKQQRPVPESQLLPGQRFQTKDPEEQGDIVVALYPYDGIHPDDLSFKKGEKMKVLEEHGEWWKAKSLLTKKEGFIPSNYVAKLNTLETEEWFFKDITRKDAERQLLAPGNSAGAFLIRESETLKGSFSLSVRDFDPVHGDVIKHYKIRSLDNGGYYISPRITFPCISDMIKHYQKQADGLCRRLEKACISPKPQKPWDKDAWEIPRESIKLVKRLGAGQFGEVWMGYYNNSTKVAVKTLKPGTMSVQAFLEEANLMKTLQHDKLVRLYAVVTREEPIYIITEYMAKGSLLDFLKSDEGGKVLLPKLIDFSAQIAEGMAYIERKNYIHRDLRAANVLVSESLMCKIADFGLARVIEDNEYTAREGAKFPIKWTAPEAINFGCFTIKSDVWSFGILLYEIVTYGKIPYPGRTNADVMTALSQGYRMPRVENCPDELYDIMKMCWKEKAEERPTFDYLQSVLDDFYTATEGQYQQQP
- Test summary: Inhibition of human Lyn at 1 uM relative to control; values are per cent of control
Reported endpoint: residual activity (%)

| Entry smiles | Reported endpoint | Result |
| --- | --- | --- |
| CN(C)c1nc2ccc1CCCn1cc(c3ccccc31)C1=C(C(=O)NC1=O)c1cn(c3ccccc13)CC2 | residual activity | 107 |
| O=C1NC(=O)C2=C1c1cn(c3ccccc13)CCCc1cc(nc(N3CCCC3)c1)CCCn1cc2c2ccccc21 | residual activity | 87 |
| O=C1NC(=O)C2=C1c1cn(c3ccccc13)CCCc1ccc(c(N3CCCC3)n1)CCCn1cc2c2ccccc21 | residual activity | 78 |
| CN(C)c1cc2cc(n1)CCCn1cc(c3ccccc31)C1=C(C(=O)NC1=O)c1cn(c3ccccc13)CCC2 | residual activity | 76 |

* * *

- Test target: Ribosomal protein S6 kinase beta-1 (Homo sapiens) (UniProt P23443)
- Sequence (P23443 whole entry, looked up): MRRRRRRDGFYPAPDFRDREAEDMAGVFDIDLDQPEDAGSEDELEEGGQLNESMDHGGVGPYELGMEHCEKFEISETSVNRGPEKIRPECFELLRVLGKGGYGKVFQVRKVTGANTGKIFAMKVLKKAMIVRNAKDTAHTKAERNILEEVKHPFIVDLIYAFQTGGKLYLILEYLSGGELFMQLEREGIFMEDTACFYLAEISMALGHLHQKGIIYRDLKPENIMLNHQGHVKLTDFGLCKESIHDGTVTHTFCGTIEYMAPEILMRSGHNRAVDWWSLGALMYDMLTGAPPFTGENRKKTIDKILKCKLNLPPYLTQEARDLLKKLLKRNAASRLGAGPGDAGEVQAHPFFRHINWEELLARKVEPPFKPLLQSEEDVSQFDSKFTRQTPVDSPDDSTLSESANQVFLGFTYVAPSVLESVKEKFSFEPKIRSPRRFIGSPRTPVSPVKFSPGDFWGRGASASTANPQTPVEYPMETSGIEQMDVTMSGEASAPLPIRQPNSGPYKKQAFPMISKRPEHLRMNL
- Test summary: Inhibition of human p70S6K at 1 uM relative to control; values are per cent of control
Reported endpoint: residual activity (%)

| Entry smiles | Reported endpoint | Readout units | Result |
| --- | --- | --- | --- |
| O=C1NC(=O)C2=C1c1cn(c3ccccc13)CCCc1ccc(c(N3CCCC3)n1)CCCn1cc2c2ccccc21 | residual activity | % | 84 |
| CN(C)c1cc2cc(n1)CCCn1cc(c3ccccc31)C1=C(C(=O)NC1=O)c1cn(c3ccccc13)CCC2 | residual activity | % | 91 |
| O=C1NC(=O)C2=C1c1cn(c3ccccc13)CCCc1cc(nc(N3CCCC3)c1)CCCn1cc2c2ccccc21 | residual activity | % | 95 |
| CN(C)c1nc2ccc1CCCn1cc(c3ccccc31)C1=C(C(=O)NC1=O)c1cn(c3ccccc13)CC2 | residual activity | % | 98 |

* * *

- Test target: Rho-associated protein kinase 2 (Rattus norvegicus) (UniProt Q62868)
- Sequence (Q62868 whole entry, looked up): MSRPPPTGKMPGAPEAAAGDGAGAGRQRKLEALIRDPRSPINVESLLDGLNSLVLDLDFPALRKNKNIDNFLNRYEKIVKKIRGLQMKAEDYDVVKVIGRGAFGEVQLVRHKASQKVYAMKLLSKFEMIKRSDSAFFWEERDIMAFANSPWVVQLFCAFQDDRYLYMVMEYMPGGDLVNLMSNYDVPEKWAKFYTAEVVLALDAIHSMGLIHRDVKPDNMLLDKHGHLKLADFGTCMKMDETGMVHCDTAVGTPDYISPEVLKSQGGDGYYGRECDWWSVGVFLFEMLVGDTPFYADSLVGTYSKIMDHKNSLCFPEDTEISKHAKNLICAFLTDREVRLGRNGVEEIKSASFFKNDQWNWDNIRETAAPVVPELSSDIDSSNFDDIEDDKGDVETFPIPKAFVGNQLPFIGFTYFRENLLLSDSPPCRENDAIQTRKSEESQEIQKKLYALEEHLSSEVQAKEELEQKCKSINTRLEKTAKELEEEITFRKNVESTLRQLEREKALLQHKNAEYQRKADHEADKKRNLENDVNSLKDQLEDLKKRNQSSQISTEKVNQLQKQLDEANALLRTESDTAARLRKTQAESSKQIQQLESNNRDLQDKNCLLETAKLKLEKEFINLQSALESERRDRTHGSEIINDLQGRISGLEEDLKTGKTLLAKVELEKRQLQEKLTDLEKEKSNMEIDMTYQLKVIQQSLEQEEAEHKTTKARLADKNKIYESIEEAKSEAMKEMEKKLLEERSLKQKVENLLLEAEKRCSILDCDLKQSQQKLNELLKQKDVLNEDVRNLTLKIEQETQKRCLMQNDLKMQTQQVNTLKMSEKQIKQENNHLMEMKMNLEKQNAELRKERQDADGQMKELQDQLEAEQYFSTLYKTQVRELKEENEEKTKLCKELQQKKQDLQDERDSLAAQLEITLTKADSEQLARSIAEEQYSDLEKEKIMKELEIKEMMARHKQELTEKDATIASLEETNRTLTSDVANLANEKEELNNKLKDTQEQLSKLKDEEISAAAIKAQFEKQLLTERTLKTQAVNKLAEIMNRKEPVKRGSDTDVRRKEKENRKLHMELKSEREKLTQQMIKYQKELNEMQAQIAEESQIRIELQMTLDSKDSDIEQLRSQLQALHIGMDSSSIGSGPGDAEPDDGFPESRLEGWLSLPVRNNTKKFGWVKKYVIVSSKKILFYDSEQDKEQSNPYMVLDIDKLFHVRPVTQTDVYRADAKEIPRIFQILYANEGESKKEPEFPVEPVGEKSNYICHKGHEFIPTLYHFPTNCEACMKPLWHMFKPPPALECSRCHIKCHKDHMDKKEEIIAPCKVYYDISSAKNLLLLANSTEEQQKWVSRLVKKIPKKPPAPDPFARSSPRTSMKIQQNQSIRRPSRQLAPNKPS
- Test summary: Residual activity of rat ROCK2 at 1 uM relative to control
Reported endpoint: residual activity (%)

| Entry smiles | Readout units | residual activity |
| --- | --- | --- |
| CN(C)c1nc2ccc1CCCn1cc(c3ccccc31)C1=C(C(=O)NC1=O)c1cn(c3ccccc13)CC2 | % | 101 |
| CN(C)c1cc2cc(n1)CCCn1cc(c3ccccc31)C1=C(C(=O)NC1=O)c1cn(c3ccccc13)CCC2 | % | 92 |
| O=C1NC(=O)C2=C1c1cn(c3ccccc13)CCCc1cc(nc(N3CCCC3)c1)CCCn1cc2c2ccccc21 | % | 83 |
| O=C1NC(=O)C2=C1c1cn(c3ccccc13)CCCc1ccc(c(N3CCCC3)n1)CCCn1cc2c2ccccc21 | % | 91 |

* * *

- Test target: Mitogen-activated protein kinase 12 (Homo sapiens) (UniProt P53778)
- Sequence (whole entry): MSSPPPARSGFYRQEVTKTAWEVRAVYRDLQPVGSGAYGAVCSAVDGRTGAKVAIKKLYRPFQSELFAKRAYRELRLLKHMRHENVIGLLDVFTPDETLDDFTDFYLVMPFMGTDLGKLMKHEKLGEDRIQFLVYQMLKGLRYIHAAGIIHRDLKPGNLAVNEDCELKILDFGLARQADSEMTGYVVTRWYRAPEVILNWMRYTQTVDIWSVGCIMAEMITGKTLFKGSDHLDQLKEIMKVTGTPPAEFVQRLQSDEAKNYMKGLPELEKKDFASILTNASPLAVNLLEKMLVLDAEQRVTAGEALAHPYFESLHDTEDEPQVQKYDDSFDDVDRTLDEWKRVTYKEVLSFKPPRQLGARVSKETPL
- Test summary: Inhibition of human SAPK3 at 1 uM relative to control; values are per cent of control
Reported endpoint: residual activity (%)

Worked cases, residual activity given:
| Entry smiles | Readout units | residual activity |
| --- | --- | --- |
| CN(C)c1cc2cc(n1)CCCn1cc(c3ccccc31)C1=C(C(=O)NC1=O)c1cn(c3ccccc13)CCC2 | % | 115 |
| O=C1NC(=O)C2=C1c1cn(c3ccccc13)CCCc1cc(nc(N3CCCC3)c1)CCCn1cc2c2ccccc21 | % | 103 |

1 = CN(C)c1nc2ccc1CCCn1cc(c3ccccc31)C1=C(C(=O)NC1=O)c1cn(c3ccccc13)CC2
2 = O=C1NC(=O)C2=C1c1cn(c3ccccc13)CCCc1ccc(c(N3CCCC3)n1)CCCn1cc2c2ccccc21
Query :: So which one has the bigger residual activity here, 1 or 2 ? Answer = label.
Result :: 2
(2: 114%, 1: 78%)

* * *

- Test target: Fibroblast growth factor receptor 3 (Homo sapiens)
- Test summary: Residual activity of human FGFR3 at 1 uM relative to control
Reported endpoint: residual activity (%)

Worked cases, residual activity given:
| Entry smiles | Readout units | residual activity |
| --- | --- | --- |
| O=C1NC(=O)C2=C1c1cn(c3ccccc13)CCCc1cc(nc(N3CCCC3)c1)CCCn1cc2c2ccccc21 | % | 114 |
| CN(C)c1cc2cc(n1)CCCn1cc(c3ccccc31)C1=C(C(=O)NC1=O)c1cn(c3ccccc13)CCC2 | % | 84 |

A = O=C1NC(=O)C2=C1c1cn(c3ccccc13)CCCc1ccc(c(N3CCCC3)n1)CCCn1cc2c2ccccc21
B = CN(C)c1nc2ccc1CCCn1cc(c3ccccc31)C1=C(C(=O)NC1=O)c1cn(c3ccccc13)CC2
Query :: So which one has the bigger residual activity here, A or B ? Answer = label.
Result :: A
(A: 117%, B: 75%)

* * *

- Test target: Tyrosine-protein kinase ABL1 (Homo sapiens)
- Test summary: Residual activity of human Abl kinase at 1 uM relative to control
Reported endpoint: residual activity (%)

| Entry smiles | Test target | Readout units | residual activity |
| --- | --- | --- | --- |
| CN(C)c1cc2cc(n1)CCCn1cc(c3ccccc31)C1=C(C(=O)NC1=O)c1cn(c3ccccc13)CCC2 | Tyrosine-protein kinase ABL1 (Homo sapiens) | % | 98 |
| CN(C)c1nc2ccc1CCCn1cc(c3ccccc31)C1=C(C(=O)NC1=O)c1cn(c3ccccc13)CC2 | Tyrosine-protein kinase ABL1 (Homo sapiens) | % | 105 |
| O=C1NC(=O)C2=C1c1cn(c3ccccc13)CCCc1cc(nc(N3CCCC3)c1)CCCn1cc2c2ccccc21 | Tyrosine-protein kinase ABL1 (Homo sapiens) | % | 107 |
| O=C1NC(=O)C2=C1c1cn(c3ccccc13)CCCc1ccc(c(N3CCCC3)n1)CCCn1cc2c2ccccc21 | Tyrosine-protein kinase ABL1 (Homo sapiens) | % | 108 |
